test: Plasmodium falciparum growth inhibition, primary screen, strain 3D7, DAPI fluorescence, 100 nL (AID 1184);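 note: parasites grown inside human red blood cells in medium with human serum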; details: P. falciparum 3D7 growth, 3 d, higher = more signal
quantity.name: z-score
Form: value (number only, do not type unit).

Consider the reported z-score for these compounds:
- COc1ccc([Si](C)(C)[C@@H]2[C@@H](CC(=O)N3CCC[C@H]3CO)O[C@]3(C(=O)N(C)c4c(Br)cc(C)cc43)[C@H]2C)cc1: -0.949
- CCCCC=C[C@@H](NC(=O)c1ccc(C(=O)OC)cc1)c1ccccc1: -1.38
- CC(=O)NCCCC[C@@H]1NC(=O)[C@@H]2C[C@H](C(=O)NCCCCN(C)C)[C@H](c3ccc(O)cc3)N2C1=O: 0.101
- COc1cc(CO)ccc1OC(C)=O: 0.186
- NC(=O)NCC#Cc1ccc2c(c1)[C@]1(C(=O)N2)[C@H](C(=O)N2CCCCCCC2)[C@H]2C(=O)O[C@H](c3ccccc3)[C@H](c3ccccc3)N2[C@@H]1c1ccc(OCCO)cc1: -0.922
- COCCOC(=O)N1C(=O)[C@@]2(c3cc(C#CCC(C(=O)OC)C(=O)OC)ccc31)[C@H](c1ccccc1OCCO)N1[C@H](c3ccccc3)[C@H](c3ccccc3)OC(=O)[C@H]1[C@@H]2C(N)=O: -2.07

Incoming: Endpoint output: z-score of O=C1C2C=CC(C(O)c3cccs3)N(Nc3ccccc3F)C2C(=O)N1c1ccccc1 (centres undefined) . Value?
Outgoing: 0.669

Incoming: Endpoint output: z-score of "O=C1O[C@H](c2ccccc2)[C@H](c2ccccc2)N2[C@H]1[C@@H](C(=O)NC[C@H](O)c1ccccc1)[C@]1(C(=O)Nc3ccc(C#CCCO)cc31)[C@H]2c1ccc(O)cc1" . Value?
Outgoing: -1.23

Values were extracted from PubChem BioAssay.
